test system: SK-MEL-5; assay: NCI tumour cell line growth inhibition, 48 h
Active and inactive are the calls of the source. Cut-off read from the data, not from the text of the source: active = GI50 up to about 1.1 µM and inactive = higher.
Field: GI50. Provide a value for each of the compounds that follow.

QUERY: System SK-MEL-5. Read-out GI50. Item CN(C)C(=S)/N=c1\ss/c(=N\C(=S)N(C)C)n1-c1cccc(Cl)c1 . Report value.
RESULT: > 100 µM (inactive)

QUERY: System SK-MEL-5. Read-out GI50. Item Cc1ccccc1NC(=O)CC(=O)NNC(Sc1ccccc1)c1cc(/N=N/c2ccc(Br)cc2)ccc1O (stereo not given) . Report value.
RESULT: 1.24 µM (inactive)

QUERY: System SK-MEL-5. Read-out GI50. Item O=C1O[C@@H](c2ccc3c(c2)OCO3)C2C(=O)O[C@@H](c3ccc4c(c3)OCO4)C12 (stereo not given in full) . Report value.
RESULT: > 100 µM (inactive)

QUERY: System SK-MEL-5. Read-out GI50. Item O=c1[nH]cnc2c(C3OC(CO)C(O)C3O)c[nH]c12 (stereo not given) . Report value.
RESULT: > 100 µM (inactive)

QUERY: System SK-MEL-5. Read-out GI50. Item CC(=O)[C@H]1[C@@H](OCc2ccccc2)O[N+]([O-])=C(C)[C@@H]1c1ccccc1 . Report value.
RESULT: 48.5 µM (inactive)
